- system tested: UniProt:P08684
- Sequence (P08684 whole entry): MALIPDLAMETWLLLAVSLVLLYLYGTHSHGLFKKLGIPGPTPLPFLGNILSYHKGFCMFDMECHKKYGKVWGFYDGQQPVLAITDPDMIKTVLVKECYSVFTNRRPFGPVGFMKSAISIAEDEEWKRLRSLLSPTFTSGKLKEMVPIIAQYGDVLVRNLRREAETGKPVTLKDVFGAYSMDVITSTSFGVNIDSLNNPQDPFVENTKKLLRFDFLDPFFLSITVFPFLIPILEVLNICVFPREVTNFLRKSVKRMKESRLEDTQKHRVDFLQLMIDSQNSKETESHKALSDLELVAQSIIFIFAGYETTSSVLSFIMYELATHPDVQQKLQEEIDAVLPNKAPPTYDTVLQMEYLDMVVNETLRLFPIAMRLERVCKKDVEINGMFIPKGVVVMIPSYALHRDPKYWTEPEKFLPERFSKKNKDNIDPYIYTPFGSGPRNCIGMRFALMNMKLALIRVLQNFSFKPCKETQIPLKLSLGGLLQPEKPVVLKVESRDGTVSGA
- protocol details: Cytochrome P450 inhibition, fluorescence, CYP3A4
- Type: in vitro ADME
- reported conditions: recombinant CYP3A4, fluorescence detection; read-out: CYP inhibition (CYP 3A4 screening, IC50 class)
- Description: The assays for cytochrome P450 inhibition facilitate the identification of drug candidates with lower potential for drug-drug interactions (weak enzymes inhibitors). […] The experiments comprised the incubation of the drug with probe substrates for the CYP enzymes, wherein the following recombinant cytochrome P450 isoforms were employed: CYP1A2, CYP2C8, CYP2C9, CYP2C19, CYP2D6 and CYP3A4, together with various probe substrates enabling fluorescence detection. […]

| compound | IC50 |
| --- | --- |
| CC(C)n1c(N2CCNC[C@H]2C)nc2c([N+](=O)[O-])c(Br)c(Br)cc21 [Example 1AX] | 1.1 to 3.3 µM |
| CCCn1c(N2CCNCC2)nc2c([N+](=O)[O-])c(Br)c(Br)cc21 [Example 1M] | 1.1 to 3.3 µM |
| CC(C)n1c(N2CCCC(O)C2)nc2c([N+](=O)[O-])c(Br)c(Br)cc21 (stereo not shown) [Example 22G] | > 10 µM |
| CC(C)n1c(NC2CCNC2)nc2c(C#N)c(Br)c(Br)cc21 (stereo not shown) [Example 1BK] | > 10 µM |

###

Flt3wt % INH (1 μM) values, listed per item
- system tested: FLT3wt (Homo sapiens (Human))
- protocol details: ADP-Glo Kinase Assay, Flt3 wt
- Type: biochemical
- reported conditions: 1 μM compound

| molecule | Flt3wt % INH (1 μM) |
| --- | --- |
| CC(C)n1c(N2CCNC[C@H]2C)nc2c([N+](=O)[O-])c(Br)c(Br)cc21 [Example 1AX] | 83% |
| CCn1c(NC2CCC(N)CC2)nc2c([N+](=O)[O-])c(Br)c(Br)cc21 (stereo not shown) [Example 1H] | <5% |
| N[C@@H]1CCN(c2nc3c([N+](=O)[O-])c(Br)c(Br)cc3n2CC2CC2)C1 [Example 1BG] | 23% |
| CC(C)n1c(C2CCCC(N)C2)nc2c([N+](=O)[O-])c(Br)c(Br)cc21 (single isomer, unassigned) [Example 26C] | 55% |

###

# pIC50 values compiled below
- Test system: HepG2 cells
- protocol details: Growth inhibition, MTS assay, HepG2
- Assay type: cell-based, Human
- reported conditions: Homo sapiens, HepG2, 72 h, MTS cell viability, read-out: HepG2 ED50
pIC50: −log10 of the molar value.

| compound | system tested | pIC50 |
| --- | --- | --- |
| CC(C)n1c(N2CCC(N)CC2)nc2c(C#N)c(Br)c(Br)cc21 | HepG2 cells | 6.00 |
| O=[N+]([O-])c1c(Br)c(Br)cc2[nH]c(N3CCNCC3)nc12 | HepG2 cells | 5.17 |
| CC(C)n1c(NCC2CNCCO2)nc2c(C#N)c(Br)c(Br)cc21 (stereo not drawn) | HepG2 cells | 5.29 |

###

- system tested: FLT3wt (Homo sapiens (Human), UniProt P36888)
- Sequence (P36888 27-993): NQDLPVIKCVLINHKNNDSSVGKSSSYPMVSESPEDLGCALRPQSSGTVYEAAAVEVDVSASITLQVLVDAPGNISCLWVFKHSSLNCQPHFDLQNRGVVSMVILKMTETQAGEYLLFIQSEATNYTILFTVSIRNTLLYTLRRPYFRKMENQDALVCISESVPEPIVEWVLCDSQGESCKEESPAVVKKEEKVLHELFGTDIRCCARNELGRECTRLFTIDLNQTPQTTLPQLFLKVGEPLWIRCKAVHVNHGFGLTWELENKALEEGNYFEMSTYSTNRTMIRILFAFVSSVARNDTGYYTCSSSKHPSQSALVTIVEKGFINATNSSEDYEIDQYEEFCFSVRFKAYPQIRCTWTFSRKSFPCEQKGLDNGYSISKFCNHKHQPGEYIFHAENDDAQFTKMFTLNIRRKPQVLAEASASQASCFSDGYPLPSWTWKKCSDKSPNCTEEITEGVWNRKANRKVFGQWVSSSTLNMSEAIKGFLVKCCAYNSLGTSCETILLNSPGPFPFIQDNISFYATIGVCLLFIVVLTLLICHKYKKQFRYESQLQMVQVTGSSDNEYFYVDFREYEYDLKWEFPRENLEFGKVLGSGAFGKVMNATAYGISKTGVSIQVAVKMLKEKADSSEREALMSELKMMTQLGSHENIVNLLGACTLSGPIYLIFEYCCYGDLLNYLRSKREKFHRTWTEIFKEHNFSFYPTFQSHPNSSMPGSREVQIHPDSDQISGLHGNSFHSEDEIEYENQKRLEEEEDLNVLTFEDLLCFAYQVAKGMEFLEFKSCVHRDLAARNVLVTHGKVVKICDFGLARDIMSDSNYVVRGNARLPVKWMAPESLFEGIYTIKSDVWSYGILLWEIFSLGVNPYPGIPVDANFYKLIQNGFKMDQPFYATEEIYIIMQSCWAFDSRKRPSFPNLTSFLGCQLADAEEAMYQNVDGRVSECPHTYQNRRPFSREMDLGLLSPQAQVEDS
- protocol details: ADP-Glo Kinase Assay, Flt3 wt
- Format: biochemical
- reported conditions: 1 μM compound
Quick rule for you: Flt3wt % INH (1 μM) under 30% gets 1.0, anything else gets 0.0.

| molecule | label value |
| --- | --- |
| CCn1c(N2CCCC(N)C2)nc2c([N+](=O)[O-])c(Br)c(Br)cc21.Cl (stereo not shown) | 1.0 |
| CC(C)n1c(NC2CNC2)nc2c([N+](=O)[O-])c(Br)c(Br)cc21 | 0.0 |
| N[C@@H]1CCN(c2nc3c([N+](=O)[O-])c(Br)c(Br)cc3n2C2CCC2)C1 | 0.0 |
| CC(C)n1c(N2CCC[C@H](N)C2)nc2c(C#N)c(Br)c(Br)cc21 | 0.0 |
| CC(C)n1c(N2CC[C@H](N)C2)nc2c([N+](=O)[O-])c(Br)c(Br)cc21 | 0.0 |
| N[C@@H]1CCN(c2nc3c([N+](=O)[O-])c(Br)c(Br)cc3n2CCCO)C1 | 1.0 |
| O=[N+]([O-])c1c(Br)c(Br)cc2c1nc(N[C@@H]1CCCNC1)n2CC1CC1 | 1.0 |
| CC(C)n1c(N2CCNCC2CO)nc2c([N+](=O)[O-])c(Br)c(Br)cc21 (stereo not shown) | 0.0 |
| CC(C)n1c(NC2CCC(N)CC2)nc2c([N+](=O)[O-])c(Br)c(Br)cc21 (stereo not shown) [Example 1CQ] | 1.0 |
